This listing pairs compounds with measured IC50.
Study Target: Phosphatidylinositol 4,5-bisphosphate 3-kinase catalytic subunit gamma isoform (Homo sapiens, UniProt P48736)
Sequence (P48736 whole entry, canonical isoform): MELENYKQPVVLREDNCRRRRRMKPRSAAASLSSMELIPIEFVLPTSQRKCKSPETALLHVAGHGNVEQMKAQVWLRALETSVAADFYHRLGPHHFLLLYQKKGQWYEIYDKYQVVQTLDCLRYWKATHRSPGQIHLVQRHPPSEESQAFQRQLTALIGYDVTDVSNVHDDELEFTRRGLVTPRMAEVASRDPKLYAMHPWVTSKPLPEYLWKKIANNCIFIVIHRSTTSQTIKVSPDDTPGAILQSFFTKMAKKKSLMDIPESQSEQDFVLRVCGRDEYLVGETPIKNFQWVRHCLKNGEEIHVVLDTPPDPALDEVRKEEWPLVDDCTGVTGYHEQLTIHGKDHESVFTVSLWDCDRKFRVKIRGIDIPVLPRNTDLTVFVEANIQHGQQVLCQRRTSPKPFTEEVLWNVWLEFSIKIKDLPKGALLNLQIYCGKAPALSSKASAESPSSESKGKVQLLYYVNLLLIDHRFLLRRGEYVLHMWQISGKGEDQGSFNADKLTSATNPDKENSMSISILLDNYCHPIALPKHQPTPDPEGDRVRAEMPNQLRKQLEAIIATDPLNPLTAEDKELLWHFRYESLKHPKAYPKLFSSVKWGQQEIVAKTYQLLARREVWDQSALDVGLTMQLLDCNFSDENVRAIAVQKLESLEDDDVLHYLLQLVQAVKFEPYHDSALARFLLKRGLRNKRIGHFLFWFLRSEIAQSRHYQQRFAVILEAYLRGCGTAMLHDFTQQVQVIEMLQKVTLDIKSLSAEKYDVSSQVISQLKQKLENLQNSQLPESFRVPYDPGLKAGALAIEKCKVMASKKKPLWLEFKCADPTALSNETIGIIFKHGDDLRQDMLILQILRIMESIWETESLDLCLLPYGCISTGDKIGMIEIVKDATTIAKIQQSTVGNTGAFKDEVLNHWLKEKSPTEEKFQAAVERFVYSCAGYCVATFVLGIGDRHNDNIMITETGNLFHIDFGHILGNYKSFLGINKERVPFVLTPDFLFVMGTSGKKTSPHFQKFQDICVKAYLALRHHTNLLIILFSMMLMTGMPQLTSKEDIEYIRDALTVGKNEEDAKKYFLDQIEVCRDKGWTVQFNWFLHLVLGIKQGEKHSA
Assay Summary: Inhibition of PI3Kgamma (unknown origin) incubated for 60 mins in presence of ATP by ADP-Glo reagent assay
Write the figure, then the unit, nothing else.

query: # return recorded IC50 for entry `C[C@H](Oc1ccc2c(c1)OCc1ccc(-c3ccncc3)cc1-2)C(N)=O`
result: 0.94 µM

====

This listing pairs compounds with measured pIC50.
Study Target: Phosphatidylinositol 4,5-bisphosphate 3-kinase catalytic subunit delta isoform (Homo sapiens)
Sequence (O00329 whole entry, canonical isoform): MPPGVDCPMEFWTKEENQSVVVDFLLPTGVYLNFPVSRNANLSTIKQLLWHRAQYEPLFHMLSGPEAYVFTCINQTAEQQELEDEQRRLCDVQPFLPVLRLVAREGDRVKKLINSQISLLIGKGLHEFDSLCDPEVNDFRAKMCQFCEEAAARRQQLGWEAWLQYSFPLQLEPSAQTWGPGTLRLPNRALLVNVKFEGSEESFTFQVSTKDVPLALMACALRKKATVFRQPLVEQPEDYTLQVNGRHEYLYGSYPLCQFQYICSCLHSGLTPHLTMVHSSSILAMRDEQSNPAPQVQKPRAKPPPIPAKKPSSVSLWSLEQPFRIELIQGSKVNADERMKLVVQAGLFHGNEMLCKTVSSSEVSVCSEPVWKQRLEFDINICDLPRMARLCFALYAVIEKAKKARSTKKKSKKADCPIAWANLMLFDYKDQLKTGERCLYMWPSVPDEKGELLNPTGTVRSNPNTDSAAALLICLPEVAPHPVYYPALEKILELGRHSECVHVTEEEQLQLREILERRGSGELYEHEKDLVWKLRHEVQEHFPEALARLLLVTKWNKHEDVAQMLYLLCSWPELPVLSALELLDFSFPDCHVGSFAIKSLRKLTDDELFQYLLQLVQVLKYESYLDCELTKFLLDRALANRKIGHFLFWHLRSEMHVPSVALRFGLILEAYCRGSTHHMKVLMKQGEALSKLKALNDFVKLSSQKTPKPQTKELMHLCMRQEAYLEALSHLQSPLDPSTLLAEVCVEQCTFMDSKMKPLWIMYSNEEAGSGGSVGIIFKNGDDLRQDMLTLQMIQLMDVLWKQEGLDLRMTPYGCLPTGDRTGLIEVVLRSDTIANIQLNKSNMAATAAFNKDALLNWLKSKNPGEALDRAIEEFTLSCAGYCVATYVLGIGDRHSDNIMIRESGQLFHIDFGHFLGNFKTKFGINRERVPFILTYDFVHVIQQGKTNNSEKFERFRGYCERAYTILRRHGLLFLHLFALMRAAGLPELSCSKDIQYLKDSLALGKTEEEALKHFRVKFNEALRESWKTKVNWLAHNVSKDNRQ
Assay Summary: Inhibition of PI3Kdelta (unknown origin) incubated for 60 mins in presence of ATP by ADP-Glo reagent assay relative to control
In simple prose, pIC50 is minus the logarithm base ten of a concentration in moles per litre.

These solved cases illustrate the format of a correct answer.
C[C@H](Oc1ccc2c(c1)OCc1ccc(-c3cc[nH]n3)cc1-2)C(N)=O: 6.36
C[C@H](Oc1ccc2c(c1)OCc1ccc(-c3ncnn3C)cc1-2)C(N)=O: 6.03
C[C@H](Oc1ccc2c(c1)OCc1ccc(-c3ncccn3)cc1-2)C(N)=O: 5.94

query: # return recorded pIC50 for entry `C[C@H](Oc1ccc2c(c1)OCc1ccc(-c3ccncc3)cc1-2)C(N)=O`
result: 6.45

query: # return recorded pIC50 for entry `C[C@H](Oc1ccc2c(c1)OCc1ccc(-c3ccncn3)cc1-2)C(N)=O`
result: 6.15

====

Study Target: Phosphatidylinositol 4,5-bisphosphate 3-kinase catalytic subunit beta isoform (Homo sapiens, UniProt P42338)
Sequence (P42338 whole entry, canonical isoform): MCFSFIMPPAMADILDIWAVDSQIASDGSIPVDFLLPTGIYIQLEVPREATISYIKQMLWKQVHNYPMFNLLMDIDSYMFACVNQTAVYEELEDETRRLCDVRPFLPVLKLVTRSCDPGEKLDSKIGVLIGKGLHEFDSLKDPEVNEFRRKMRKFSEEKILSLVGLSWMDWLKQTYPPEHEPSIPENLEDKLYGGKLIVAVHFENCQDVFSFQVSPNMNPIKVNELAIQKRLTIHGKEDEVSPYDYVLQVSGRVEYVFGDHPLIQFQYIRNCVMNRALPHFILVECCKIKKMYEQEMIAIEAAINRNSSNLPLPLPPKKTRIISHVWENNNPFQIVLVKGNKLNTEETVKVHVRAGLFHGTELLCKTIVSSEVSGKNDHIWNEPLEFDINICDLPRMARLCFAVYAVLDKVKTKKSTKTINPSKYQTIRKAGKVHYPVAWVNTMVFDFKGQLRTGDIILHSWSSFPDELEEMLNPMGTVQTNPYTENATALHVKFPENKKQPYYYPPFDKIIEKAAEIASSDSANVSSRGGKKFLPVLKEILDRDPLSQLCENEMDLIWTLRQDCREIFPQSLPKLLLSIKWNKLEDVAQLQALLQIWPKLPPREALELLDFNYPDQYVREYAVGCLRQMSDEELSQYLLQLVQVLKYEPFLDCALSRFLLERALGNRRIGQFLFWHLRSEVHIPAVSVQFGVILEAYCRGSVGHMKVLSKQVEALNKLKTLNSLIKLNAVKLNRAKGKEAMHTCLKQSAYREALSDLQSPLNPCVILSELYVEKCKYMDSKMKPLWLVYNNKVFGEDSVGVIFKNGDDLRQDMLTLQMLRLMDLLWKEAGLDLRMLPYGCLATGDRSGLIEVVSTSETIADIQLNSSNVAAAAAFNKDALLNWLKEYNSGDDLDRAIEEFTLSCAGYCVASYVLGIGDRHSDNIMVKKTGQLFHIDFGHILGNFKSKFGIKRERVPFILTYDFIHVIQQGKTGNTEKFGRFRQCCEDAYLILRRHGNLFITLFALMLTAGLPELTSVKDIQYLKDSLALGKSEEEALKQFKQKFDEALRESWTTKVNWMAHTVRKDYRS
Assay Summary: Inhibition of PI3Kbeta (unknown origin) incubated for 60 mins in presence of ATP by ADP-Glo reagent assay
This listing pairs compounds with measured IC50.
API: value field is a number in µM; no unit string.

C[C@H](Oc1ccc2c(c1)OCc1ccc(-c3ncnn3C)cc1-2)C(N)=O: 4.97
C[C@H](Oc1ccc2c(c1)OCc1ccc(-c3cc[nH]n3)cc1-2)C(N)=O: 2.67

Proceeding to the next compound to report its IC50.
query: # return recorded IC50 for entry `C[C@H](Oc1ccc2c(c1)OCc1ccc(-c3ccncc3)cc1-2)C(N)=O`
result: 3.25

====

Test system: T47D
Assay Summary: cells
Measurement Context: Homo sapiens, 168 h
Description: Antiproliferative activity against human T47D cells assessed as inhibition of cell growth incubated for 7 days by CCK8 assay
pIC50: −log10 of the molar value.
Use Fulfilled when the recorded pIC50 is no lower than 5; use Not fulfilled when it is lower.

Worked examples, 2 molecules total:
Cc1nc(NC(=O)N2CCC[C@H]2C(N)=O)sc1-c1ccnc(C(C)(C)C(F)(F)F)c1 [ALPELISIB]: Fulfilled
CC(C)n1nccc1-c1ccc2c(c1)-c1ccc(O[C@@H](C)C(N)=O)cc1OC2: Not fulfilled

query: Check this molecule for pIC50 at or above 5: `C[C@H](Oc1ccc2c(c1)OCc1ccc(-c3cccnc3)cc1-2)C(N)=O`
result: Not fulfilled

====

This listing pairs compounds with measured IC50.
Study Target: Phosphatidylinositol 4,5-bisphosphate 3-kinase catalytic subunit gamma isoform (Homo sapiens)
Assay Summary: Inhibition of PI3Kgamma (unknown origin) incubated for 60 mins in presence of ATP by ADP-Glo reagent assay

These solved cases illustrate the format of a correct answer.
C[C@H](Oc1ccc2c(c1)OCc1ccc(-c3ncnn3C)cc1-2)C(N)=O: 5.07 µM
C[C@H](Oc1ccc2c(c1)OCc1ccc(-c3cc[nH]n3)cc1-2)C(N)=O: 1.29 µM

Proceeding to the next compound to report its IC50.
query: # return recorded IC50 for entry `C[C@H](Oc1ccc2c(c1)OCc1ccc(-c3ncccn3)cc1-2)C(N)=O`
result: 7.09 µM
